- Protocol Details: gradient 5% acetonitrile 3 min, to 50% in 2 min, to 85% in 15 min, held 3 min, 100 µL/min
- Experimental Context: column: Zorbax Extend-C18 2.1 x 50 mm; eluents: water / acetonitrile, 0.1% formic acid
Measure: RP-LC retention time (s)

Example cases with answers are listed next.
Compound: O=C(Cc1ccccc1)NC1CCN(c2cc(-c3cccs3)[nH]n2)C1 (stereo not given)
U: s
Numeric Result: 741
--
Compound: CCc1cccc(NS(=O)(=O)c2cn(CC)c3ncccc23)c1
U: s
Numeric Result: 937
--
Compound: Cn1nc(C(=O)N2CCCCC2)c2c1CCN(C(=O)CCC(=O)NCCN1CCCCC1)C2
U: s
Numeric Result: 586
--
Compound: Cc1ccc(NS(=O)(=O)c2cc3c(=O)n(C)ncn3c2)cc1C
U: s
Numeric Result: 849
--
Compound: Cc1ccc(C(C)NC(=O)C2CC(=O)N(c3cccc(NC(=O)C(C)C)c3)C2)c(C)c1 (stereo not given)
U: s
Numeric Result: 868

I. COC(=O)C1C(=O)C2=C(CC1C)Nc1ccccc1NC2c1ccc(Cl)cc1 (stereo not given)
II. COc1ccc(N2CCN(c3ccc(-c4nc(-c5cccc(F)c5)no4)cn3)CC2)cc1
III. CCn1cnc(S(=O)(=O)N2CCC(C(=O)Nc3ccc(C)cn3)CC2)c1
Sort entries by RP-LC retention time from minimum to maximum value. Returns: the labels listed in the requested order. III, I, II
(III: 592 s, I: 852 s, II: 1310 s)

A. Cc1cc(=O)n(CC(=O)Nc2ccc(Br)cc2)c(N)n1
B. O=C(COc1ccc(Cl)cc1)Oc1ccc2nc(N3CCOCC3)sc2c1
Which value of RP-LC retention time is greater, the one for A or the one for B ? Write down the label attached to your selection. B

###

- Protocol Details: gradient 5% acetonitrile 3 min, to 50% in 2 min, to 85% in 15 min, held 3 min, 100 µL/min
- Experimental Context: column: Zorbax Extend-C18 2.1 x 50 mm; eluents: water / acetonitrile, 0.1% formic acid
Measure: RP-LC retention time (s)

Compound: CCn1cnc(S(=O)(=O)N2CCC(C(=O)NCc3ccc(OC)cc3)CC2)c1
RP-LC retention time / s: 674

a. COc1ccc(C2Cn3nnc(-c4nc(-c5ccncc5)no4)c3CO2)cc1 (stereo not drawn)
b. Cc1ccccc1CNC(=O)C1CCN(CCc2cn(C)c3ncccc23)CC1
Lab note: check whether a or b has the lower measured RP-LC retention time. Write down the label attached to your selection. b

###

- Protocol Details: gradient 5% acetonitrile 3 min, to 50% in 2 min, to 85% in 15 min, held 3 min, 100 µL/min
- Experimental Context: column: Zorbax Extend-C18 2.1 x 50 mm; eluents: water / acetonitrile, 0.1% formic acid
Measure: RP-LC retention time (s)

Example cases with answers are listed next.
Compound: CCOCCCNC(=O)CCCn1c2ccccc2c2cnn(C)c(=O)c21
Numeric Result: 728
//
Compound: CC(C)C(=O)Nc1ccc(CCc2nc3ccc(C(=O)NCc4ccc5c(c4)OCO5)cc3[nH]2)cc1
Numeric Result: 669
//
Compound: CC(C)COc1cc(=O)n2c(c1C(=O)NC1CCN(C)CC1)CCCCC2
Numeric Result: 571
//
Compound: Cn1c(N2CCCC(C(=O)NCC3CCN(Cc4cccc(F)c4)CC3)C2)cc(=O)n(C)c1=O (stereo unspecified)
Numeric Result: 575
//
Compound: O=C(c1ccc(Cl)cc1Cl)N1CCN(c2cc(-c3ccc(Cl)cc3)[nH]n2)CC1
Numeric Result: 981

a. CCC(=O)Nc1ccc(-n2cnc(C(=O)N3CCN(c4cccc(OC)c4)CC3)c2)nc1
b. CN(Cc1ccccc1)c1ccc(-c2noc(CN3CCN(c4ccccc4)CC3)n2)cn1
Lab note: check whether a or b has the lower measured RP-LC retention time. Write down the label attached to your selection. a
(a: 717 s, b: 1100 s)

###

- Protocol Details: gradient 5% acetonitrile 3 min, to 50% in 2 min, to 85% in 15 min, held 3 min, 100 µL/min
- Experimental Context: column: Zorbax Extend-C18 2.1 x 50 mm; eluents: water / acetonitrile, 0.1% formic acid
Measure: RP-LC retention time (s)

Molecule: Cc1ccc(-c2csc(Cc3nc(-c4ccc(C)cc4)no3)n2)cc1
Numeric Result: 1320

Molecule: Cn1nc(CNC(=O)c2ccccc2Br)c2ccccc21
Numeric Result: 757

Molecule: COc1cccc(C(=O)NC2CCN(c3cc(-c4cccs4)[nH]n3)C2)c1OC (configuration not stated)
Numeric Result: 722

1. CCn1cc(CCNC(=O)Nc2cccc(C(C)=O)c2)c2cccnc21
2. COC(=O)c1cc2c(=O)n(-c3nc(-c4ccc(Cl)cc4)cs3)ccc2nc1C
Lab note: check whether 1 or 2 has the lower measured RP-LC retention time. Write down the label attached to your selection. 1
(1: 665 s, 2: 1420 s)

###

- Protocol Details: gradient 5% acetonitrile 3 min, to 50% in 2 min, to 85% in 15 min, held 3 min, 100 µL/min
- Experimental Context: column: Zorbax Extend-C18 2.1 x 50 mm; eluents: water / acetonitrile, 0.1% formic acid
Measure: RP-LC retention time (s)

Example cases with answers are listed next.
Molecule: CCC(C)NS(=O)(=O)c1cc(-c2c(C)noc2NC(C)=O)ccc1OC (centres undefined)
U: s
Numeric Result: 720
//
Molecule: CC(C)n1c(=O)sc2cc(S(=O)(=O)N3CCC(C(=O)N4CCCC4)CC3)ccc21
U: s
Numeric Result: 809
//
Molecule: O=C(NCCn1c(-c2ccc(F)cc2)nc2cccnc21)NCc1ccccc1
U: s
Numeric Result: 684
//
Molecule: CC(C)c1ccc(S(=O)(=O)N2CCCC2c2nc(-c3ccc(F)cc3)no2)cc1 (centres undefined)
U: s
Numeric Result: 1260
//
Molecule: CNC(=O)[C@@H]1C[C@H](Oc2ccccc2)CN1C(=O)COc1ccccc1
U: s
Numeric Result: 603

1. O=C(CNC(=O)C1COc2ccccc2O1)NCCc1c[nH]c2ccccc12 (centres undefined)
2. COc1ccc(OC)c(NC(=O)CSc2cc(N3CCN(c4ccccc4F)CC3)ncn2)c1
Lab note: check whether 1 or 2 has the lower measured RP-LC retention time. Write down the label attached to your selection. 1
(1: 780 s, 2: 1180 s)

a. Cc1ccc(CSc2nnc3c(S(=O)(=O)N4CCCC4)cccn23)cc1
b. Cc1cc(C(=O)NC2CCCCC2)nc2cc(-c3cccs3)nn12
Which value of RP-LC retention time is greater, the one for a or the one for b ? Write down the label attached to your selection. b

###

- Protocol Details: gradient 5% acetonitrile 3 min, to 50% in 2 min, to 85% in 15 min, held 3 min, 100 µL/min
- Experimental Context: column: Zorbax Extend-C18 2.1 x 50 mm; eluents: water / acetonitrile, 0.1% formic acid
Measure: RP-LC retention time (s)

Example cases with answers are listed next.
Compound: CSc1ccc(CNC(=O)CCNc2cnc3cnccn23)cc1
Numeric Result: 588
--
Compound: COc1ccc(C2C(C(=O)NCCC(C)C)c3cc(OC)c(OC)cc3C(=O)N2C)cc1 (stereo not given)
Numeric Result: 804
--
Compound: CCOC(=O)N1CCN(S(=O)(=O)c2ccc(C(=O)Nc3cccc(C)n3)cc2)CC1
Numeric Result: 721

I. Cc1ccc(C(=O)Nc2c(-c3ccc(F)cc3)nc3ccccn23)cc1[N+](=O)[O-]
II. CC(C)CCn1nc2c(S(=O)(=O)N3CCc4ccccc4C3)cccn2c1=O
Lab note: check whether I or II has the lower measured RP-LC retention time. Write down the label attached to your selection. I
(I: 701 s, II: 1010 s)

I. O=C(NC1CCCc2ccccc21)c1ccc2c(c1)OCCCO2 (stereo not given)
II. O=C(NCC1CC1)c1c(-c2ccccc2)cc(=O)n2c1CCC2
Which value of RP-LC retention time is greater, the one for I or the one for II ? Write down the label attached to your selection. I
(I: 958 s, II: 660 s)

###

- Protocol Details: gradient 5% acetonitrile 3 min, to 50% in 2 min, to 85% in 15 min, held 3 min, 100 µL/min
- Experimental Context: column: Zorbax Extend-C18 2.1 x 50 mm; eluents: water / acetonitrile, 0.1% formic acid
Measure: RP-LC retention time (s)

Molecule: Cc1ncoc1C(=O)N1CCOc2ccc(NC(=O)C3CC3)cc2C1
RP-LC retention time [s]: 659

Molecule: COc1ccc(CNC(=O)N2CCC(OC3CCN(S(C)(=O)=O)CC3)CC2)cc1
RP-LC retention time [s]: 699

Molecule: Cc1ccc(-c2csc(NC(=O)COc3cc(C)ccc3C(C)C)n2)cc1
RP-LC retention time [s]: 992

Molecule: Cc1oc(C2CCN(C(=O)Nc3cc(F)cc(F)c3)CC2)nc1C(=O)N1CCCC1
RP-LC retention time [s]: 917

Molecule: CC(=O)Nc1ccc(NC(=O)Cn2cccc(-c3nc(-c4ccc(Cl)cc4)no3)c2=O)cc1
RP-LC retention time [s]: 937

Molecule: Cc1ccc(-c2noc(C3CC3)n2)cc1S(=O)(=O)N1CCC(C(=O)N2CCOCC2)CC1
RP-LC retention time [s]: 697

Molecule: CCN(CC)CCCNC(=O)C1CCCN(c2nc3ccccc3n(Cc3ccccc3)c2=O)C1 (stereo unspecified)
RP-LC retention time [s]: 726

Molecule: Cc1ccccc1NC(=O)c1cn2c(n1)CCCC2
RP-LC retention time [s]: 586

Molecule: CC(C)n1c(SCC(=O)N2CCCC2)nnc1-c1ccc2c(c1)OCCCO2
RP-LC retention time [s]: 671

Molecule: CCn1cc(C(CNC(=O)Nc2cccc(SC)c2)c2cccnc2)c2ccccc21 (stereo unspecified)
RP-LC retention time [s]: 786

Molecule: Cn1nc(C(=O)N2CCN(c3cc(-c4ccccc4)[nH]n3)CC2)c2ccccc21
RP-LC retention time [s]: 805
